System: E. coli TEM7 3457E
Experiment: MIC, two-fold agar dilution
Format: cell-based
Conditions: Muller-Hinton agar, 37° C., 20 hours
measurementName: minimal inhibitory concentration (MIC)

Nc1nc(/C(=N/O[C@@H](C(=O)O)c2ccc(O)c(O)c2)C(=O)N[C@@H]2C(=O)N3C(C(=O)O)=C(CSc4nc(N)c(N)c(N)n4)CS[C@H]23)cs1 : 0.063
Nc1cc(SCC2=C(C(=O)O)N3C(=O)[C@@H](NC(=O)/C(=N\O[C@@H](C(=O)O)c4ccc(O)c(O)c4)c4csc(N)n4)[C@H]3SC2)ncn1 : 0.031

* * *

System: E. coli TEM9 2639E
Assay: MIC, two-fold agar dilution
Format: cell-based
Conditions: Muller-Hinton agar, 37° C., 20 hours
measurementName: minimal inhibitory concentration (MIC)

Cc1c(N)nc(SCC2=C(C(=O)O)N3C(=O)[C@@H](NC(=O)/C(=N\O[C@@H](C(=O)O)c4ccc(O)c(O)c4)c4csc(N)n4)[C@H]3SC2)nc1N [Compound I-2R] : 0.5
Nc1nc(/C(=N/O[C@H](C(=O)O)c2ccc(O)c(O)c2)C(=O)N[C@@H]2C(=O)N3C(C(=O)O)=C(CSc4nc(N)c(N)c(N)n4)CS[C@H]23)cs1 [Compound I-5S] : 0.25
Nc1cc(SCC2=C(C(=O)O)N3C(=O)[C@@H](NC(=O)/C(=N\O[C@@H](C(=O)O)c4ccc(O)c(O)c4)c4csc(N)n4)[C@H]3SC2)ncn1 [Compound I-7R] : 0.25
Nc1cc(N)nc(SCC2=C(C(=O)O)N3C(=O)[C@@H](NC(=O)/C(=N\O[C@@H](C(=O)O)c4ccc(O)c(O)c4)c4csc(N)n4)[C@H]3SC2)n1 [Compound I-1R] : 0.5
Nc1cc(SCC2=C(C(=O)O)N3C(=O)[C@@H](NC(=O)/C(=N\O[C@H](C(=O)O)c4ccc(O)c(O)c4)c4csc(N)n4)[C@H]3SC2)nc(N)n1 [Compound I-6S] : 0.13

* * *

System: Staphylococcus aureus 241
Assay: MIC, two-fold agar dilution
Format: cell-based
Conditions: Muller-Hinton agar, 37° C., 20 hours
measurementName: minimal inhibitory concentration (MIC)

Nc1cc(SCC2=C(C(=O)O)N3C(=O)[C@@H](NC(=O)/C(=N\O[C@H](C(=O)O)c4ccc(O)c(O)c4)c4csc(N)n4)[C@H]3SC2)ncn1 : 64
Nc1nc(/C(=N/O[C@@H](C(=O)O)c2ccc(O)c(O)c2)C(=O)N[C@@H]2C(=O)N3C(C(=O)O)=C(CSc4nc(N)c(N)c(N)n4)CS[C@H]23)cs1 : 128
Nc1nc(/C(=N/O[C@H](C(=O)O)c2ccc(O)c(O)c2)C(=O)N[C@@H]2C(=O)N3C(C(=O)O)=C(CSc4nc(N)c(N)c(N)n4)CS[C@H]23)cs1 : 64

* * *

Tested on: E. coli TEM7 3457E
Experiment: MIC, two-fold agar dilution
Type: cell-based
Details: Muller-Hinton agar, 37° C., 20 hours
minimal inhibitory concentration (MIC) listing for selected compounds.
measurementName: minimal inhibitory concentration (MIC)

Nc1nc(/C(=N/O[C@H](C(=O)O)c2ccc(O)c(O)c2)C(=O)N[C@@H]2C(=O)N3C(C(=O)O)=C(CSc4nc(N)c(N)c(N)n4)CS[C@H]23)cs1 [Compound I-5S] : ≤ 0.008
Nc1cc(N)nc(SCC2=C(C(=O)O)N3C(=O)[C@@H](NC(=O)/C(=N\O[C@H](C(=O)O)c4ccc(O)c(O)c4)c4csc(N)n4)[C@H]3SC2)n1 [Compound I-1S] : ≤ 0.008
Nc1cc(SCC2=C(C(=O)O)N3C(=O)[C@@H](NC(=O)/C(=N\O[C@H](C(=O)O)c4ccc(O)c(O)c4)c4csc(N)n4)[C@H]3SC2)nc(N)n1 [Compound I-6S] : ≤ 0.008
